# subject_of_test: c-Src wt (SH3 domain) (Gallus gallus, UniProt P00523, Q128R)
# Construct: The plasmid pET15b containing the chicken c-Src-SH3 domain gene; made in house
# protocol: ITC binding of peptide RLP2 to c-Src SH3 wt
# Parameters: species or system chicken
# condition_label: ITC, 25 °C; RLP2 about 2 mM titrated into SH3 (50-122 μM); single set of identical sites; wt; read-out: Kd (25 ºC)
assay_metric: Kd (µM)

# substance, assay_metric, numeric_result
data = [
    ("Ac-RALPPLPRY-NH2 [RLP2, Ac-RALPPLPRY-NH2]", "Kd", 13.8),
]

###

# subject_of_test: c-Src R73E (SH3 domain) (Gallus gallus, UniProt P00523, Q128E)
# Construct: The plasmid pET15b containing the chicken c-Src-SH3 domain gene; made in house
# protocol: ITC binding of peptide RLP2 to c-Src SH3 R73E
# Set-up: species or system chicken
# condition_label: ITC, 25 °C; RLP2 about 2 mM titrated into SH3 (50-122 μM); R73E (control); read-out: Kd (25 ºC)
pKd: −log10 of the molar value.

# substance, pKd
data = [
    ("Ac-RALPPLPRY-NH2 [RLP2, Ac-RALPPLPRY-NH2]", 5.03),
]

###

# subject_of_test: c- Src W56L (SH3 domain) (Gallus gallus, UniProt P00523, Q128R/W119L)
# Construct: The plasmid pET15b containing the chicken c-Src-SH3 domain gene; made in house
# protocol: ITC binding of peptide RLP2 to c-Src SH3 W56L
# Set-up: species or system chicken
# condition_label: ITC, 25 °C; RLP2 about 2 mM titrated into SH3 (50-122 μM); W56L; read-out: Kd (25 ºC)

# substance, subject_of_test, Kd [µM]
records = [
    ("Ac-RALPPLPRY-NH2 [RLP2, Ac-RALPPLPRY-NH2]", "c- Src W56L (SH3 domain) (Gallus gallus, UniProt P00523, Q128R/W119L)", 72.5),
]

###

# subject_of_test: c-Src H59R (SH3 domain) (Gallus gallus, UniProt P00523, H122R/Q128R)
# Construct: The plasmid pET15b containing the chicken c-Src-SH3 domain gene; made in house
# protocol: ITC binding of peptide RLP2 to c-Src SH3 H59R
# Design: species or system chicken
# condition_label: ITC, 25 °C; RLP2 about 2 mM titrated into SH3 (50-122 μM); H59R; read-out: Kd (25 ºC)
pKd: −log10 of the molar value.
assay_metric: pKd

# substance, assay_metric, numeric_result
data = [
    ("Ac-RALPPLPRY-NH2 [RLP2, Ac-RALPPLPRY-NH2]", "pKd", 4.96),
]

###

# subject_of_test: c-Src L40V (SH3 domain)
# protocol: ITC binding of peptide RLP2 to c-Src SH3 L40V
# Set-up: species or system chicken
# condition_label: ITC, 25 °C; RLP2 about 2 mM titrated into SH3 (50-122 μM); L40V; read-out: Kd (25 ºC)
pKd: −log10 of the molar value.

# substance, subject_of_test, pKd
rows = [
    ("Ac-RALPPLPRY-NH2 [RLP2, Ac-RALPPLPRY-NH2]", "c-Src L40V (SH3 domain)", 4.69),
]

Where do these numbers come from? They come from paper PMC4877006.
